Test system: Escherichia coli
procedure.summary: Antibacterial activity against Escherichia coli ATCC 25922 after 18 hrs by broth microdilution method
Assay type: functional
condition.label: ATCC 25922, 18 h
metric.name: MIC

Consider the following illustrative entries.
CCC(C)C(=O)O[C@@H]1c2c(cc(O)c3c2C(=O)c2cccc(O)c2-3)C(=O)[C@@]2(C)O[C@@H]12 (some centres undefined) :: > 64 mg/L
CC(C)C(=O)O[C@@H]1c2c(cc(O)c3c2C(=O)c2cccc(O)c2-3)C(=O)[C@@]2(C)O[C@@H]12 :: > 64 mg/L
C[C@]1(O)C=Cc2c(cc(O)c3c2C(=O)c2cccc(O)c2-3)C1=O :: > 64 mg/L
C[C@]12O[C@H]1[C@H](O)c1c(cc(O)c3c1C(=O)c1cccc(O)c1-3)C2=O :: > 64 mg/L
Cc1cc(O)c2c3c(ncc2c1)C(=O)c1c(O)cccc1C3=O :: 32 mg/L
C[C@]1(O)CC(=O)c2c(cc(O)c3c2C(=O)c2cccc(O)c2C3=O)C1 :: 16 mg/L
CO[C@@H]1c2c(cc(O)c3c2C(=O)c2cccc(O)c2-3)C(=O)[C@@]2(C)O[C@@H]12 :: > 64 mg/L
CC(C)C(=O)O[C@@H]1c2c(cc(O)c3c2C(=O)c2cccc(O)c2-3)C(=O)[C@H](C)[C@H]1O :: > 64 mg/L

MIC value, target or system Escherichia coli, for `C[C@]1(Cl)C(=O)c2cc(O)c3c(c2[C@@H](O)[C@@H]1O)C(=O)c1cccc(O)c1-3` : > 64 mg/L

====

System: SF-268
procedure.summary: Cytotoxicity against human SF268 cells by SRB assay
Assay type: functional, cell-based
metric.name: IC50

Measured IC50 of `C[C@]1(O)CC(=O)c2c(cc(O)c3c2C(=O)c2cccc(O)c2C3=O)C1` : 5.54 µM

Measured IC50 of `Cc1cc(O)c2c3c(ncc2c1)C(=O)c1c(O)cccc1C3=O` : 0.09 µM

Measured IC50 of `C[C@]1(Cl)C(=O)c2cc(O)c3c(c2[C@@H](O)[C@@H]1O)C(=O)c1cccc(O)c1-3` : > 100 µM

These measurements were taken from ChEMBL document CHEMBL2163340.
